Each recorded value in this set is attributed to patent US5025033A.

Exercise: for every item that follows, state its recorded pIC50.
- system name: Acetylcholinesterase (Rattus norvegicus)
- Construct: the S1 fraction of a male Wistar rat cerebral cortex homogenate was used as a cholinesterase source; from tissue; host or cells: male Wistar rat cerebral cortex homogenate, S1 fraction
- Sequence (P37136 32-614): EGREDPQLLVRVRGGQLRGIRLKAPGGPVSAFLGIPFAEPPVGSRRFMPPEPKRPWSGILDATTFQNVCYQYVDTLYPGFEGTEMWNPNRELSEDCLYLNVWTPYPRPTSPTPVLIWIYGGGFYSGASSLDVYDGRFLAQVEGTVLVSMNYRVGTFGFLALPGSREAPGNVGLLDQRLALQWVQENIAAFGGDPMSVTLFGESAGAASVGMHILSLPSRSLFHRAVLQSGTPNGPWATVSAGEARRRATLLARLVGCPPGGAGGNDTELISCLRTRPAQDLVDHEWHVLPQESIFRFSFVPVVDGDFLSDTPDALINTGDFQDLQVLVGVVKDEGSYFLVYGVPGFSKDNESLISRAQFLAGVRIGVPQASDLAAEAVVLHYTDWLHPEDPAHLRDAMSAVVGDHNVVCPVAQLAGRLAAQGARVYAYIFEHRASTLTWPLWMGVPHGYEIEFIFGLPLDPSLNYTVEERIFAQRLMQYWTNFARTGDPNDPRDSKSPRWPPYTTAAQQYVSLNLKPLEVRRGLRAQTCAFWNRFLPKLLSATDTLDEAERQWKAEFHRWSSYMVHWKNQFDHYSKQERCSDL
- assay text: Acetylcholinesterase inhibiting activity using (acetyl-[3H])-acetylcholine, S1 fraction of rat cerebral cortex homogenate
- Format: biochemical, male Wistar rat
- measurement context: rat cerebral cortex homogenate S1 fraction; 30 minutes of incubation; read-out: Acetylcholinesterase inhibiting activity IC50
Answers are plain numbers, as −log10 of the molar value.

Some solved cases for reference:
Q: Output pIC50 of "CCN(CCCCCN1C(=O)c2ccc([N+](=O)[O-])cc2C1=O)Cc1ccccc1[N+](=O)[O-]"
Result: 6.31

Q: Recall and state the measured pIC50 for "CCN(CCCCCN1C(=O)c2cccc([N+](=O)[O-])c2C1=O)Cc1ccccc1" .
Result: 6.17

Q: Give pIC50 for "CC(C)N(CCCCCN1C(=O)c2ccc([N+](=O)[O-])cc2C1=O)Cc1ccccc1"
Result: 6.08

Take each entry in turn and give its pIC50.
1. CCN(CCCN1C(=O)c2ccc([N+](=O)[O-])cc2C1=O)Cc1ccccc1
2. CCN(CCCCCN1C(=O)c2ccc(NC(=O)c3ccccc3)cc2C1=O)Cc1ccccc1
3. CCN(CCCCCN(C(C)=O)C(=O)/C=C/c1ccc(Cl)cc1)Cc1ccccc1
4. CCN(CCCCCN1C(=O)c2ccc([N+](=O)[O-])cc2C1=O)Cc1ccc(OC)cc1
5. CCN(CCCCCN1C(=O)c2ccc([N+](=O)[O-])cc2C1=O)Cc1ccccc1

Result:
5.00
6.14
5.66
6.57
6.82
